Target: T1, StXPB2 (Sulfolobus tokodaii, UniProt Q970I2 1-439)
T1 sequence: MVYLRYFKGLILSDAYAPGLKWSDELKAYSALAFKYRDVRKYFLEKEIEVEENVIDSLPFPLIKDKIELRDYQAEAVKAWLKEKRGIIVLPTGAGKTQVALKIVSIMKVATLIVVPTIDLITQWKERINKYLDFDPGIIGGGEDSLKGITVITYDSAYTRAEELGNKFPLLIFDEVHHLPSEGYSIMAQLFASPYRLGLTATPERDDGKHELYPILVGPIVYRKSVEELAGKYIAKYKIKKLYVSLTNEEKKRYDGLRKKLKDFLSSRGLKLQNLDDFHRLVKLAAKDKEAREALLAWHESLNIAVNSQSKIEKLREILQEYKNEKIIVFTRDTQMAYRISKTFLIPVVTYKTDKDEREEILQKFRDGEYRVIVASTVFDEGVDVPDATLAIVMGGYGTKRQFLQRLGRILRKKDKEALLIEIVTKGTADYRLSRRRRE
Test: DNA electrochemistry
measured.endpoint: pKd
Kindly note that pKd refers to -log10 of the concentration in mol/L and answer with the value alone.

// pKd value for 17mer well-matched duplex (WM) (dsDNA, strand 1 5' C6 thiol on gold electrode; strand 2 5'-terminal T is Nile Blue-modified (5-acrylate dU)) DNA 1: GAGATATAAAGCACGCA DNA 2: TGCGTGCTTTATATCTC : 7.30
